Test: NCI Yeast Anticancer Drug Screen. Data for the cln2 rad14 strain (AID 165);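 note: 0% = growth equal to vehicle treated cultures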
Conditions: S. cerevisiae cln2 rad14 strain, at 50.0 µM, active compounds read high
This is part of a sample that, as a whole, favours compounds with a hit. Of some 79,000 tested, about 15% had one in any assay.
Give measured growth inhibition for each item. Keep answers brief.
Write the number in % without appending the unit.

Which measured growth inhibition value corresponds to Nc1ccc(/C=C2/c3ccccc3-c3nc4ccccc4cc32)cc1 ?
5

Which measured growth inhibition value corresponds to CN(C)S(=O)(=O)c1cc(Cl)ccc1NN ?
19.2

Which measured growth inhibition value corresponds to O=C1C=CC(=O)N1c1ccc(Cl)cc1 ?
84.8

Which measured growth inhibition value corresponds to N#CSCC(=O)c1ccc2ccccc2c1 ?
91

Which measured growth inhibition value corresponds to CN(C)CCCN1c2ccc3ccccc3c2Sc2cccc(Cl)c21 ?
96

Which measured growth inhibition value corresponds to O=c1c2[nH]c3cccc(Cl)c3c2cnn1-c1ccc(F)cc1 ?
94.5

Which measured growth inhibition value corresponds to CCC(CC)C1(C(=O)OCCN(CC)CC)CCCCC1 ?
3.5

Which measured growth inhibition value corresponds to Nc1cccc2c1[nH]c(=O)c1ccccc12 ?
77.9

Which measured growth inhibition value corresponds to CS(=O)(=O)C(=Cc1ccccc1Cl)S(C)(=O)=O ?
12.1

Which measured growth inhibition value corresponds to O=C1C2Nc3ccccc3SC2C(=O)N1c1ccccc1C(F)(F)F (configuration not stated) ?
46.5

Which measured growth inhibition value corresponds to C[Si](C)(CCC(=O)O)O[Si](C)(C)CCC(=O)O ?
98.2

Which measured growth inhibition value corresponds to Cc1ccc(N2C(=O)CSC2=S)cc1Br ?
31.9

Which measured growth inhibition value corresponds to CCOC(=O)C(Cc1cc(I)c(Oc2ccc(OC)cc2)c(I)c1)NC(C)=O (configuration not stated) ?
89.3

Which measured growth inhibition value corresponds to CC1OC(OP(=O)(OCc2ccccc2)OCc2ccccc2)C(OC(=O)c2ccccc2)C(OC(=O)c2ccccc2)C1I (configuration not stated) ?
88.5

Which measured growth inhibition value corresponds to COC(=O)[C@]1(C)CCC[C@]2(C)c3ccc(C(C)C)cc3C(=O)C[C@@H]12 ?
89.5

Which measured growth inhibition value corresponds to CC(c1ccccc1)[P+](c1ccccc1)(c1ccccc1)c1ccccc1 (configuration not stated) ?
96.8

Which measured growth inhibition value corresponds to CC(C)N=C(NC(C)C)SCCCCCCSC(=NC(C)C)NC(C)C ?
76.2

Which measured growth inhibition value corresponds to CCCCN(CCCC)CC(O)Cc1cc2ccccc2c2ccccc12 (configuration not stated) ?
62.6

Which measured growth inhibition value corresponds to O=C1C2=C(CCCC2)C(=O)c2ccccc21 ?
-30.5

Which measured growth inhibition value corresponds to COc1cc(Cc2n[nH]c(=S)n2-c2ccccc2)c(S(=O)(=O)N2CCOCC2)cc1OC ?
82.7

Which measured growth inhibition value corresponds to CCCCCN(CCCCC)CC(O)c1cccc2cc(Cl)ccc12 (configuration not stated) ?
99.5

Which measured growth inhibition value corresponds to O=C1CC(c2ccccc2Cl)C(c2ccccc2Cl)C1 (configuration not stated) ?
95.5

----------
Assay: NCI Yeast Anticancer Drug Screen. Data for the mec2-1 strain (AID 157)
Conditions: S. cerevisiae mec2-1 strain, at 5.0 µM (retest, dose inferred, filed as 0.5), active compounds read high
Experimental: Growth inhibition of yeast strains with defined genetic alterations is measured as a screen for potential anti-cancer activity. Selected strains with alterations in DNA damage repair or cell cycle control were exposed to compounds and growth inhibition was measured relative to vehicle treated controls. The strain used in this assay is mec2-1
About 79,000 compounds went through this panel and 15% of them were active in at least one assay; those are over-represented in the sample as a whole.
Give measured growth inhibition for each item. Keep answers brief.
Write the number in % without appending the unit.

Which measured growth inhibition value corresponds to CCCCC1C(=O)N2c3ccccc3-c3ccccc3N2C1=O ?
4

Which measured growth inhibition value corresponds to O=C(Cc1c[nH]c2ccccc12)N/N=C/c1ccc(Cl)cc1[N+](=O)[O-] ?
1

Which measured growth inhibition value corresponds to COC(=O)c1ccc(NCc2c(O)ccc(O)c2Br)cc1Cl ?
14

Which measured growth inhibition value corresponds to O=C(NCCc1c(-c2ccccc2)[nH]c2ccccc12)C(F)(F)C(F)(F)F ?
1

Which measured growth inhibition value corresponds to Cc1ccc(C(=O)C(CN(C)C)CN(C)C)cc1 ?
12

Which measured growth inhibition value corresponds to CCCCN(CCCC)CC(O)c1cc(-c2ccc(Cl)cc2)nc2c(-c3ccccc3)cccc12 (configuration not stated) ?
-5

Which measured growth inhibition value corresponds to CCOC(=S)SSC(=S)NCCNC(=S)SSC(=S)OCC ?
4
